system: aged monkeys; assay: variable delayed response task (spatial working memory) in aged monkeys; conditions: dose .05 mg/kg i.m. (equimolar clonidine dose); mean
Recorded Delayed Response Performance (% change from placebo control) by entry

Worked set:
N=C(N)NC(=O)Cc1c(Cl)cccc1Cl [Guanfacine, guanfacine]: -6%
N=C(N)N/N=C/c1c(Cl)cccc1Cl [Guanabenz, guanabenz]: +7%
Clc1cccc(Cl)c1N=C1NCCN1 [Clonidine, clonidine]: +12%

# input Would you kindly share the measured Delayed Response Performance (% change from placebo control) for C=CCN1CCc2nc(N)sc2CC1 [BHT-920] ?
# output +8%
